- Tested on: CSNK1G2
- Particulars: concentration: 1 μM, replicates: in singlicate; n = 1;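 also: KINOMEscan kinase panel screen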
Result type: %Inh
Answer with the figure and its unit, nothing else.

query: Looking for the measured %Inh of O=C(O)C(F)(F)F.O=c1[nH]ccc2nc(N[C@@H]3CCNC3)nc(Nc3cc(Cl)cc(Cl)c3)c12 , can you help?
result: 94.2%

query: Any idea what its %Inh is? The molecule is COc1ccc(C)c(Nc2ccnc(Nc3ccc(-c4cnc[nH]4)cc3)n2)c1.Cl
result: 0%

query: What does the record list as %Inh for CS(=O)(=O)c1cccc(CNc2nc(Nc3ccc4c(c3)CCC(=O)N4)ncc2C(F)(F)F)c1 ?
result: 4%

query: Look up %Inh: Cc1ccc(O)cc1Nc1ccnc2cc(-c3ccc(CN4CCCCC4)o3)ccc12
result: 5%

query: Any idea what %Inh was measured for Nc1ncc(-c2ccc3nccc(-c4ccncc4)c3c2)cc1S(=O)(=O)N1CCCCC1 ?
result: 18%

query: Need %Inh, item Cc1cccc(Nc2nc(NCCN)ncc2C(N)=O)c1
result: 0%

query: I am curious: what %Inh value has been reported for NCCC(NC(=O)c1cc(Br)c(-c2ccnc3[nH]ccc23)s1)c1ccccc1.O=C(O)C(F)(F)F.O=C(O)C(F)(F)F (centres unmarked) ?
result: 99%

query: Item Cc1ccc(C)c(NC(=O)Nc2ccc(C)c(-c3ccc(C(=O)Nc4ccncc4)cc3)c2)c1 has what recorded %Inh?
result: 15%

====

- Test system: MUSK
- Particulars: concentration: 1 μM, replicates: in singlicate; n = 1
Task for the reader: assign each of the following compounds its reported %Inh.
Write the value in % as a bare number.

query: Form field: reported %Inh of CSc1ccc(NC2=C(c3ccc(Cl)cc3)C(=O)NC2=O)cc1
result: 34

query: Please report the recorded %Inh for Cn1cc(-c2ccc3c(c2)CCN3C(=O)Cc2cc(F)cc(F)c2F)c2c(N)ncnc21 .
result: 28

query: I'd like to know its %Inh. The compound in question is Cc1ccccc1CC(=O)N1CCc2cc(-c3cn(C)c4ncnc(N)c34)ccc21
result: 5

query: What measured %Inh goes with Cl.Cl.NC(CNC(=O)c1cc(Br)c(-c2ccnc3[nH]ccc23)s1)c1ccccc1 (centres unmarked) ?
result: 22

query: Suppose we examine the compound O=C(O)C(F)(F)F.O=c1[nH]ccc2nc(N[C@@H]3CCNC3)nc(Nc3cc(Cl)cc(Cl)c3)c12 ; what %Inh value has been reported?
result: 3

====

- System: BTK
- Particulars: concentration: 1 μM, replicates: in singlicate; n = 1
Result type: %Inh (%)
Output spec: scalar in %, unitless text.

query: Hello, I am looking for reported %Inh with BTK for O=C(O)C(F)(F)F.O=c1[nH]ccc2nc(N[C@@H]3CCNC3)nc(Nc3cc(Cl)cc(Cl)c3)c12 . Could you help?
result: 0

query: Query for BTK: what %Inh does the record show for CN(c1ccc(F)c(NC(=O)c2cccc(OC(C)(C)C#N)c2Cl)c1)c1ccc2nc(NC(=O)C3CC3)sc2n1 ?
result: 22

query: Please provide the recorded %Inh for O=C1NC(=O)C(c2ccccc2Cl)=C1Nc1cccc(Cl)c1 , tested on BTK.
result: 0

query: Give BTK %Inh for Cc1ccc(O)cc1Nc1ccnc2ccc(C(C)(C)C)cc12
result: 0

query: Give %Inh (BTK) of the following compound: Cc1ccc(C)c(NC(=O)Nc2ccc(C)c(-c3ccc(C(=O)Nc4ccncc4)cc3)c2)c1
result: 0

query: Recorded %Inh for CN(c1ccc2c(c1)nc(NCc1ccccc1)n2C)c1ccnc(Nc2ccc(CS(C)(=O)=O)cc2)n1.Cl with BTK, please?
result: 64

query: Find %Inh (BTK) for the entry COC(=O)Nc1nc2ccc(Oc3ccc(CC(=O)Nc4cc(C(F)(F)F)ccc4F)cc3)cc2[nH]1
result: 0
